Data origin, for the record: the supplement of paper PMC12855868

B1: library; numbered along this chain (parent)
chain: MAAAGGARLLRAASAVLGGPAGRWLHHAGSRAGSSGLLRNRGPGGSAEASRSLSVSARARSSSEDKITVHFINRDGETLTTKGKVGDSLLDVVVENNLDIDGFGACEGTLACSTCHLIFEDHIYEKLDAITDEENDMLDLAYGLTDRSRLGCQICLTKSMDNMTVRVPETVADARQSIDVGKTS

variants of: B1; assay: scaled log2 fold change in cell abundance, elesclomol vs control (0 = silent mean, 1 = nonsense mean) (scaled log2 ratio); higher = higher viability under elesclomol (loss of FDX1 cuproptosis function); conditions: with ABC1 FDX1 KO; elesclomol 5 nM; glucose 10 mM; 14 days;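 further: variant abundance is its share of total variant reads in each endpoint sample, from next-generation sequencing of the integrated ORF PCR-amplified out of genomic DNA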
List of scaled log2 fold change values.

{"variantIdentifier": "G143I", "scaled log2 fold change": -0.102}
{"variantIdentifier": "G45V", "scaled log2 fold change": 0.149}
{"variantIdentifier": "L156G", "scaled log2 fold change": 0.709}
{"variantIdentifier": "S34F", "scaled log2 fold change": 0.0028}
{"variantIdentifier": "V92G", "scaled log2 fold change": 0.459}
{"variantIdentifier": "K82Q", "scaled log2 fold change": -0.471}
{"variantIdentifier": "D75R", "scaled log2 fold change": -0.271}
{"variantIdentifier": "A2Q", "scaled log2 fold change": -0.344}
{"variantIdentifier": "E48R", "scaled log2 fold change": 0.787}
{"variantIdentifier": "L90Q", "scaled log2 fold change": -0.132}
{"variantIdentifier": "S52P", "scaled log2 fold change": -0.128}
{"variantIdentifier": "R39N", "scaled log2 fold change": -0.39}
{"variantIdentifier": "R149Y", "scaled log2 fold change": 0.871}
{"variantIdentifier": "R74Q", "scaled log2 fold change": 0.323}
{"variantIdentifier": "G151T", "scaled log2 fold change": 0.645}
{"variantIdentifier": "H122R", "scaled log2 fold change": -0.313}
{"variantIdentifier": "V180P", "scaled log2 fold change": -1.19}
{"variantIdentifier": "L144I", "scaled log2 fold change": 0.399}
{"variantIdentifier": "D161A", "scaled log2 fold change": -0.111}
{"variantIdentifier": "E134F", "scaled log2 fold change": 1.23}
{"variantIdentifier": "N162C", "scaled log2 fold change": -0.275}
{"variantIdentifier": "L10W", "scaled log2 fold change": -0.304}
{"variantIdentifier": "Y124A", "scaled log2 fold change": -0.0589}
{"variantIdentifier": "K182V", "scaled log2 fold change": -0.251}
{"variantIdentifier": "D65N", "scaled log2 fold change": -0.21}
{"variantIdentifier": "Q176V", "scaled log2 fold change": 0.192}
{"variantIdentifier": "K66W", "scaled log2 fold change": -0.5}
{"variantIdentifier": "T131M", "scaled log2 fold change": 0.154}
{"variantIdentifier": "G104H", "scaled log2 fold change": 0.989}
{"variantIdentifier": "T131R", "scaled log2 fold change": -0.448}
{"variantIdentifier": "D65H", "scaled log2 fold change": 0.192}
{"variantIdentifier": "K126Q", "scaled log2 fold change": -0.973}
{"variantIdentifier": "K82I", "scaled log2 fold change": 0.215}
{"variantIdentifier": "G19S", "scaled log2 fold change": 0.267}
{"variantIdentifier": "M163I", "scaled log2 fold change": 0.122}
{"variantIdentifier": "S177P", "scaled log2 fold change": -0.213}
{"variantIdentifier": "V93T", "scaled log2 fold change": -0.217}
{"variantIdentifier": "W24M", "scaled log2 fold change": 0.24}
{"variantIdentifier": "T145C", "scaled log2 fold change": -0.124}
{"variantIdentifier": "S184W", "scaled log2 fold change": 0.0507}
{"variantIdentifier": "T145D", "scaled log2 fold change": -0.00306}
{"variantIdentifier": "C155Y", "scaled log2 fold change": -0.378}
{"variantIdentifier": "Y124L", "scaled log2 fold change": 0.252}
{"variantIdentifier": "A141N", "scaled log2 fold change": -0.0904}
{"variantIdentifier": "T109E", "scaled log2 fold change": -0.14}
{"variantIdentifier": "C106E", "scaled log2 fold change": 1.06}
{"variantIdentifier": "R175P", "scaled log2 fold change": -0.117}
{"variantIdentifier": "L9P", "scaled log2 fold change": 0.629}
{"variantIdentifier": "C115N", "scaled log2 fold change": 0.976}
{"variantIdentifier": "H116G", "scaled log2 fold change": 0.0557}
{"variantIdentifier": "R58I", "scaled log2 fold change": -0.339}
{"variantIdentifier": "R149E", "scaled log2 fold change": 1.13}
{"variantIdentifier": "N73P", "scaled log2 fold change": 0.17}
{"variantIdentifier": "T81D", "scaled log2 fold change": -0.11}
{"variantIdentifier": "T68M", "scaled log2 fold change": -0.209}
{"variantIdentifier": "G6R", "scaled log2 fold change": 0.173}
{"variantIdentifier": "R58V", "scaled log2 fold change": 0.434}
{"variantIdentifier": "D173N", "scaled log2 fold change": 0.304}
{"variantIdentifier": "A129W", "scaled log2 fold change": -0.08}
{"variantIdentifier": "A12D", "scaled log2 fold change": 0.231}
{"variantIdentifier": "L10N", "scaled log2 fold change": 0.128}
{"variantIdentifier": "D65K", "scaled log2 fold change": -0.369}
{"variantIdentifier": "D99S", "scaled log2 fold change": -0.273}
{"variantIdentifier": "P20E", "scaled log2 fold change": 0.162}
{"variantIdentifier": "H26D", "scaled log2 fold change": 0.267}
{"variantIdentifier": "A21K", "scaled log2 fold change": -0.827}
{"variantIdentifier": "L53Q", "scaled log2 fold change": -0.164}
{"variantIdentifier": "E125L", "scaled log2 fold change": 0.17}
{"variantIdentifier": "T109K", "scaled log2 fold change": -0.296}
{"variantIdentifier": "R60L", "scaled log2 fold change": 0.042}
{"variantIdentifier": "V85G", "scaled log2 fold change": 0.265}
{"variantIdentifier": "S52Y", "scaled log2 fold change": 0.285}
{"variantIdentifier": "I154D", "scaled log2 fold change": 1.18}
{"variantIdentifier": "A57S", "scaled log2 fold change": 0.247}
{"variantIdentifier": "R41M", "scaled log2 fold change": 0.173}
{"variantIdentifier": "R175E", "scaled log2 fold change": 0.417}
{"variantIdentifier": "R11P", "scaled log2 fold change": 0.346}
{"variantIdentifier": "T81V", "scaled log2 fold change": 0.0264}
{"variantIdentifier": "S61M", "scaled log2 fold change": 0.184}
{"variantIdentifier": "L144N", "scaled log2 fold change": 0.342}
